test: ATG_BRE_CIS: Attagene CIS-FACTORIAL HepG2 Assay for human Bone Morphogenetic Protein (BMP) Response Element (BRE) (AID 2282933); settings: HepG2 BMP response element reporter, Attagene transcription factor profiling; actives raise or lower the signal
Activity calls are given as the source filed them. How the source made its calls: active means hit-call score of the fitted dose curve at least 0.9, where 1 is the maximum; inactive means score below 0.9.

| molecule | outcome |
| --- | --- |
| CCN1CN(CC)CN(CC)C1 | inactive |
| C=CCCCCCCCCOC(C)=O | inactive |
| CC1CCC(=O)C1=O (stereo not drawn) | inactive |

* * *

assay: ATG_TCF_b_cat_CIS: Attagene CIS-FACTORIAL HepG2 Assay for human T-Cell-Factor with beta-catenin (TCF/b-cat) (AID 2282965); conditions: HepG2 TCF/beta-catenin cis-reporter transcription, actives raise or lower the signal
The source made the active and inactive calls. How the source made its calls: active means hit-call score of the fitted dose curve at least 0.9, where 1 is the maximum; inactive means score below 0.9.
Labels: true (1) for active, false (0) for inactive

| compound | class.label |
| --- | --- |
| CCOc1ccc(NC(N)=O)cc1 | false (0) |
| CCCCCCCCCCCCc1ccc(O)cc1 | false (0) |
| C=CC(=O)O[C@H]1C[C@@H]2CC[C@@]1(C)C2(C)C | false (0) |
| CCOC(=O)OC(=O)OCC | false (0) |
| CC1CC(=O)CC(C)(C)C1 (centres undefined) | false (0) |
| C=CC(=O)OCCCCCCCCCC | false (0) |
| O=C(OCCc1ccccc1)c1ccccc1 | false (0) |
| CCCCCCCCCCCCCC(=O)OC(C)C | false (0) |
| CC(=O)OCCc1ccccc1 | false (0) |
| CCCCCCCCCCCCCCCCCCOS(=O)(=O)O | true (1) |
| CC1(C)C(=O)N(CO)C(=O)N1CO | false (0) |
| C=C(C)C(=O)OCCCCCCCCCCCC | false (0) |
| O=C1CCCCCCCCCCC1 | false (0) |
| CCCCCCO | false (0) |
